Test system: SW620 pERK
Experiment: Phospho-ERK inhibition, AlphaLISA SureFire Ultra p-ERK 1/2
Type: cell-based, human
Condition Summary: Homo sapiens, SW-620; Table D-2
pIC50: −log10 of the molar value.
Would you kindly list pIC50 for each of these compounds?

For each entry beneath this line, provide reported pIC50.
1. Cc1c(F)cccc1S(=O)(=O)Nc1ccc(F)c(Nc2ncnc3cnc(-n4cnc5c(-c6cccnc6)cccc54)nc23)c1F
2. Cc1ccc2c(Nc3cccc(Cl)c3F)nccc2c1NC(=O)c1csc2c(N)ncnc12 [Belvarafenib, reference compound]

1: < 6.52; 2: 6.52 to 7.52

###

System: IPC298 pERK
Experiment: Phospho-ERK inhibition, AlphaLISA SureFire Ultra p-ERK 1/2
Assay type: cell-based, human
Condition Summary: Table D-1; % Ymin of pERK IC50 curve
Procedure: All cancer cell lines (A375, A101D, A2058, RKO, HT29 SK-MEL 30, IPC298, HepG2, HCT-116, Lovo, SW620, SW480, NCI-H358, NCI-H2122, Calu-6, NCIH2087, NCIH1755, NCIH1666 and Mewo) were obtained from ATCC and cultured in RPMI-1640 medium (Gibco) supplemented with 5% heat inactivated fetal bovine serum (FBS, Wisent) at 37° C. under 5% CO2. Cells were maintained in T175 flasks (Greiner). […] The effect of each compound dilution on the pERK signal was expressed in % inhibition and calculated as follows. […]
Measured Attribute: IPC298 pERK, value in parentheses, % inhibition

| Smiles String | Result |
| --- | --- |
| COc1ccc(S(=O)(=O)Nc2ccc(F)c(Nc3ncnc4cnc(-n5cnc6c(N)cccc65)nc34)c2F)c(C)c1Cl | (1) % |
| Cc1c(F)cccc1S(=O)(=O)Nc1ccc(F)c(Nc2ncnc3cnc(-n4cnc5c(-c6cccnc6)cccc54)nc23)c1F | (1) % |

From: patent US20240239801A1
